Cited source for all entries: paper PMC2756588

Give measured SPOT intensity for each item. Keep answers brief.
# TARGET OF ASSAY: T1, Pex13, P80667
# T1 sequence (P80667 295-386, looked up): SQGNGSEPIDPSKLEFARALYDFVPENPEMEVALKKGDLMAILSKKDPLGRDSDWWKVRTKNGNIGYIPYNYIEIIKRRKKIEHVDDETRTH
# ASSAY SUMMARY: SPOT array
# RECORDED CONDITIONS: median of control spots 1341
Answers are plain numbers.

Solved cases (6 shown):
[
  {
    "BINDER": "KIRRSSLMIPNPQQF",
    "SPOT intensity": 30
  },
  {
    "BINDER": "HRRRRVFSIPSLKSI",
    "SPOT intensity": 4
  },
  {
    "BINDER": "KMSRSPPRPPSLKII",
    "SPOT intensity": 124
  },
  {
    "BINDER": "QLLNPNRRAPRRPLS",
    "SPOT intensity": 21
  },
  {
    "BINDER": "RRRDFGAPANKRPRR",
    "SPOT intensity": 2
  },
  {
    "BINDER": "RRASLFPRDPKRLRP",
    "SPOT intensity": 2
  }
]

In the following, a different binder is considered.
Sample YLTRPLPSTPNEDSR — what was its SPOT intensity?
297
